# SYSTEM NAME: PDZ1+2 (A) module of hDlg (human, UniProt Q12959 205-411)
# Sequence (Q12959 205-411): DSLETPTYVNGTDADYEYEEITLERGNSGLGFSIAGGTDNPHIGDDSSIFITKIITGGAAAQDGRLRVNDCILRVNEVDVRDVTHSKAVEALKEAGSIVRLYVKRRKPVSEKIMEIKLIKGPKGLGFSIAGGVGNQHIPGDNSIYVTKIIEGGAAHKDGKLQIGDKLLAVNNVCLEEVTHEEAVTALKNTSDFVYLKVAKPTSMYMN
# PROTOCOL SUMMARY: SPR
Where no end group is shown, it is not given here. The star is where a group is joined. Biotin = O=C1N[C@H]2[C@H](CS[C@H]2CCCCC(=O)*)N1

BINDER: Biotin-SGSGDKNNCSNAKAVETDV [biotinylated synthetic peptide of the COOH terminus of the Kv1.4 potassium channel]
Kd (nM): 33
